Recorded Population Hoechst High Intensity Objects (%) values for a group of compounds are listed next.
- Test system: Fibroblast
- protocol_text: Multiplex assay against human fibroblast
- Assay type: toxicity, cell-based
- reported_conditions: 12 h, 1 µM, compound concentration 1 uM, number of replicates 2
*1 amine or outer side, *2 acyl side, *3 side chain or, on linkers, in order; H or OH if unused. Where a SMILES comes first, the peptide text is derived from it. Bridges are numbered along the chain shown (N, C = ends). Roman numbers before positions name the chains, in order. [ ]: non-standard residue; d: D form. Hexamethylenediamine = C(CCCN[*:2])CCN[*:1]; Dip = N[C@H](C(=O)O)C(c1ccccc1)c1ccccc1; Chg = N[C@H](C(=O)O)C1CCCCC1; NMeA = CN[C@@H](C)C(=O)O
reported_endpoint: Population Hoechst High Intensity Objects (%)

compound	unit_label	obs_value
O=C1Nc2ccc(C(=O)c3ccco3)cc2C1=Cc1cc(Cl)c(O)c(Cl)c1 [GW406108X]	%	0
O=C1NC(=NCc2cccs2)SC1=Cc1ccc2ncccc2c1	%	0
CC(C)(C)c1cnc(CSc2cnc(NC(=O)C3CCNCC3)s2)o1 [BMS-387032]	%	0
c1ccc2c(-c3coc4cc(-c5ccc(N6CCNCC6)cc5)cnc34)ccnc2c1	%	0
Cn1cc(-c2ccc(-c3cncc(Cl)c3N3CCC4(CCNC4=O)CC3)cc2)cn1	%	0
O=C(Nc1ccnc(NC(=O)C2CC2)c1)c1c(Cl)cccc1Cl	%	0
CC(C)S(=O)(=O)c1ccccc1Nc1nc(N[C@@H]2CCCN(CCCCCCCNC(=O)COc3cccc4c3C(=O)N(C3CCC(=O)NC3=O)C4=O)C2)ncc1Cl (some centres undefined)	%	0
CCN1C(=O)N(c2c(F)c(OC)cc(OC)c2F)Cc2cnc3[nH]c(CN4CCOCC4)cc3c21 [PEMIGATINIB]	%	0
CC1=C(C)C(=O)C(C(CCCCCC(=O)O)c2ccccc2)=C(C)C1=O (centres undefined) [SERATRODAST]	%	0
CC(C)c1c(NC(=O)Nc2ccc(Cl)cc2)c(=O)n(-c2ccccc2)n1C	%	0
CNc1ncc2cc(-c3ccc(-c4cccc(C)n4)cc3Cl)c(=O)n(C[C@H]3OC[C@H](N)CO3)c2n1	%	0
COc1ccc(F)c(F)c1C(=O)c1cnc(NC2CCN(S(C)(=O)=O)CC2)nc1N [RG-547]	%	0
CC(C)NC(=O)[C@H]1CCC[C@H]1Nc1nc(Nc2ccc(C(=O)N(C)C3CCN(C)CC3)cc2)ncc1Cl	%	0
Cc1cn(CCN2CCN(c3ccccc3-c3cc(C#N)cc(C(=O)NCCCN4CCCC4)c3)CC2)c2ccccc12	%	0
CS(=O)(=O)c1ccc(C(=O)Nc2cc(F)c(F)c(COc3cc(F)c(Br)cc3CN3CC[C@H](O)C3)c2)c(Cl)c1.O=CO	%	0
CN(C)CCCNc1ccnc(Nc2cccc(Cl)c2)n1	%	0
CS(=O)(=O)c1ccc(C(=O)Nc2cc(F)cc(COc3cc(F)c(Br)cc3CN3CC[C@H](O)C3)c2)c(Cl)c1.O=CO	%	0
C=CC(=O)Nc1cccc(C)c1Nc1ncc2cc(-c3c(Cl)c(OC)cc(OC)c3Cl)ccc2n1	%	0
CCN(CC)C/C=C/C(=O)Nc1cc2c(Nc3ccc(F)c(Cl)c3)ncnc2cc1OCC1CC1	%	0
Cl.Clc1ccc2nsnc2c1NC1=NCCN1 [TIZANIDINE HYDROCHLORIDE]	%	0
CNS(=O)(=O)c1ccc(N(C)C)c(Nc2ncnc3cc(OC)c(OC)cc23)c1	%	0
COc1cc(C(N)=O)ccc1Nc1ncc2c(n1)N(CCC(C)C)[C@H](C)C(=O)N2C	%	0
CN[C@@H](C)C(=O)N[C@H](C(=O)N1CCC[C@H]1C(=O)N[C@H](C(=O)NCCCCCCNC(=O)[C@@H](NC(=O)[C@@H]1CCCN1C(=O)[C@@H](NC(=O)[C@H](C)NC)C1CCCCC1)C(c1ccccc1)c1ccccc1)C(c1ccccc1)c1ccccc1)C1CCCCC1 (I: H-[NMeA][Chg]P[Dip] / II: H-[NMeA][Chg]P[Dip]; linker I:C-II:C via Hexamethylenediamine)	%	0
O=C1NC(=O)C(c2ccccc2[N+](=O)[O-])=C1Nc1ccc(O)c(Cl)c1	%	0
COc1ccccc1-c1cc(Nc2cccc(CS(N)(=O)=O)c2)ncn1	%	0
COc1ccc2cc(S(=O)(=O)N[C@H](CC(=O)N[C@H](Cc3ccc(CN4[C@H](C)CCC[C@@H]4C)cc3)C(=O)N(C)C(C)C)c3ccc4c(c3)OCO4)ccc2c1.Cl	%	0
CSc1cc2c(cc1C(F)(F)F)N(C(=O)Nc1cccnc1)CC2	%	0
CN1CCc2cc(Nc3ncc(C(F)(F)F)c(NCc4cc[nH]n4)n3)ccc2C1	%	0
NC(=O)c1ccc(-c2nc(-c3ccc4c(c3)OCCO4)c(-c3ccccn3)[nH]2)cc1	%	0
COc1ccc(CC[C@@H](OC(=O)[C@@H]2CCCCN2C(=O)[C@H](c2cc(OC)c(OC)c(OC)c2)C2CCCCC2)c2cccc(OCCN3CCOCC3)c2)cc1OC	%	0
COc1cc(N(C)c2ccnc3ccc(C(F)(F)F)cc23)cc(OC)c1OC	%	0
COC(=O)Nc1nc2c(s1)-c1c(c(-c3cccnc3)nn1-c1ccc(C3(N(C)C)CC3)cc1)CC2.Cl.Cl	%	0
COc1ccncc1C(=O)NC(=O)Nc1ccc(-c2ccccc2)c(C(F)(F)F)c1	%	0
CC(C)N1CCN(Cc2cnc(-c3cc(-c4cccc5[nH]ccc45)cc4[nH]ncc34)o2)CC1 [NEMIRALISIB]	%	0
